# target: T1, recombinant human B7H3-Fc protein (human, UniProt Q5ZPR3 29-466, limits assumed)
# T1 construct: 154 kDa non-reduced, 77 kDa reduced; also called hB7H3-Fc; not shown: Fc part
# T1 sequence (looked up): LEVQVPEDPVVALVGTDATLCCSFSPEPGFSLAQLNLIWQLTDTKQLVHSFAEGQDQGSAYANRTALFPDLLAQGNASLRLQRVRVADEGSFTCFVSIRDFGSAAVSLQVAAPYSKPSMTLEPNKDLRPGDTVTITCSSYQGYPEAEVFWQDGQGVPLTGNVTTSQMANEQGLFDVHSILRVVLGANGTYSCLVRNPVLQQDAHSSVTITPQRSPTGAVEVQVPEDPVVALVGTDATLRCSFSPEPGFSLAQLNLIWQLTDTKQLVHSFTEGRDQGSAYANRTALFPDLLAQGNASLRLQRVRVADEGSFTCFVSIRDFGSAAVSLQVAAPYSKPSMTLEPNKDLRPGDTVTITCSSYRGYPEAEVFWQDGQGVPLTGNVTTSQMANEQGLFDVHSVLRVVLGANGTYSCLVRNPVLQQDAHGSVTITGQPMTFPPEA
# assayComment: phage ELISA
// values below are reported ELISA signal

| binder | experimentalValue |
| --- | --- |
| RWG8 (VHH, Camel VHH; tag not described; also called camel antibody RWG8) VHH: DVQLVESGGGLVQPGGSLRLSCAASGFTFSRYWMGWFRQAPGKGVEWVSTINSGGGSTYYADSVKGRFTISRDNAKNTLYLQLNNLKTEDTAMYYCAKEQWRTGSRGQGTQVTVSS | 2.52 |
| RWG4 (VHH, Camel VHH; tag not described; also called camel antibody RWG4) VHH: QVQLVQSGGGLVQPGGSLRLSCAASGFTFSVYWFYWVRQAPRQGLEWVSTIASNGSTYYSDSVKGRFTISRDNAKNTVYLQMNSLKPEDTAVYYCVSDPDYYSDYERAYKFWAQGTQVTVSS | 2.13 |
| RWD9 (VHH, Camel VHH; tag not described; also called camel antibody RWD9) VHH: EVQLVESGGGLVQPGGSLSVSCAASGFTFSVYWFYWVRQAPRQGLEWVSTIASNGSTYYSDSVKGRFTISRDNAKNTVYLQMNSLKPEDTAVYYCVSDPDYYSDYERAYKFWAQGTQVTVSS | 2.43 |
| RWB12 (VHH, Camel VHH; tag not described; also called camel antibody RWB12) VHH: QVQLVESGGGSVQVGGSLRLSCAASGFTYNSYSVGWFRQAPGKEREGVAAINSGGSSTYYAASVKGRFTISRDNAKNTVYLQMNSLKPEDTAMYYCAARSPSPLTFQTRTLREDSYNYWGQGTQVTVSS | 2.48 |

Summary for this binder, RWC3 (VHH, Camel VHH; tag not described; also called camel antibody RWC3) VHH: QVQLVESGGGLVQPGGSLSVSCAASGFTFSVYWFYWVRQAPRQGLEWVSTIASNGSTYYSDSVKGRFTISRDNAKNTVYLQMNSLKPEDTAVYYCVSDPDYYSDYERAYKFWAQGTQVTVSS : ELISA signal is 2.42

Summary for this binder, RWD5 (VHH, Camel VHH; tag not described; also called RWDS [sic]; camel antibody RWD5) VHH: AVQLVESGGGLVQPGGSLSVSCAASGFTFSVYWFYWVRQAPRQGLEWVSTIASNGSTYYSDSVKGRFTISRDNAKNTVYLQMNSLKPEDTAVYYCVSDPDYYSDYEREYKFWAQGTQVTVSS : ELISA signal is 2.5

Summary for this binder, RWC4 (VHH, Camel VHH; tag not described; also called camel antibody RWC4) VHH: EVQLVESGGGSVQAGGSLRLSCVASEDSTSAMCMGWFRQAPGKEREGVACINPTGEVTWYGDSVKGRFTISRDTVKKIVYLQMNSLKPEDTAMYYCAARVTYGGDWSTDTDYEYWGQGTQVTVSS : ELISA signal is 2.66

Summary for this binder, RWH1 (VHH, Camel VHH; tag not described; also called camel antibody RWH1) VHH: AVQLVESGGGSVQAGGSLRLSCAASGMNLDNYVRGWLRQAPGSKCEFVSIIRRDGTTDYGDSVKGRFTISRDNAKNTVYLQMNSLKPDDTAVYYCAAIVVPRAAEYACDGLPYRGQGTQVTVSS : ELISA signal is 2.75
